Measured phosphorylation enrichment of individual entries
- system: MERTK (UniProt Q12866)
- Sequence (Q12866 whole entry, looked up): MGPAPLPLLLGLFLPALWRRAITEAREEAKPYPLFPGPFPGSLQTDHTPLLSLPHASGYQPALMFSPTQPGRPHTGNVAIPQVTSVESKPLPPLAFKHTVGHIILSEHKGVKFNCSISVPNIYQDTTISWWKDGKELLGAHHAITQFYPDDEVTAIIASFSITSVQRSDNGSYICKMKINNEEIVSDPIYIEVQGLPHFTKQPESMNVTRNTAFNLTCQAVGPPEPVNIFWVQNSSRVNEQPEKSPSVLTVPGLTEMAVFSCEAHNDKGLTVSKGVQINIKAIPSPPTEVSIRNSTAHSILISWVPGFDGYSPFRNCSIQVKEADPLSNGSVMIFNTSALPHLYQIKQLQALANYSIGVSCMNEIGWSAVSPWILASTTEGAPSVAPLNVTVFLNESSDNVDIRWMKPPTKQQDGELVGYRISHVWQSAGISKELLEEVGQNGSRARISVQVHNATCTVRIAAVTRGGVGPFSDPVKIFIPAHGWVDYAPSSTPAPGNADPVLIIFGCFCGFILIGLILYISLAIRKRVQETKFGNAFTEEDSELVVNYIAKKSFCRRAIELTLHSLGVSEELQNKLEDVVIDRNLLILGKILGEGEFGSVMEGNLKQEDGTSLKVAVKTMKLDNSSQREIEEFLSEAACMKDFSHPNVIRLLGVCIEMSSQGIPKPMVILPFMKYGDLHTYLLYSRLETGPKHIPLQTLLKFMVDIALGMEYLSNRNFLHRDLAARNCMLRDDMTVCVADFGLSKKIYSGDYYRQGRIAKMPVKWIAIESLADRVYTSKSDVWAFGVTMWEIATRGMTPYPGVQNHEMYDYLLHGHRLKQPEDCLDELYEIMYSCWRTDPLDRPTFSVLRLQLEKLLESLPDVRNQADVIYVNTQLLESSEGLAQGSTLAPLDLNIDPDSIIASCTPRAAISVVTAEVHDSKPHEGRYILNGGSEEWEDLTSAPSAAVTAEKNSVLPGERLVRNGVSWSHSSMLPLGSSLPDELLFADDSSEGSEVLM
- test description: phosphorylation enrichment, bacterial display (enrichment ratio); higher = better substrate or ligand; peptides without Tyr show the background
measured endpoint: phosphorylation enrichment

[
  {
    "seq string": "RFMVGYEMLAQ [GALT_Y339_K334R]",
    "observed result": 0.635
  },
  {
    "seq string": "YKRAVYCIIGR [NUP93_Y391]",
    "observed result": 0.849
  },
  {
    "seq string": "NALVQYQEMEK [BBS4_Y395_A393V]",
    "observed result": 0.459
  },
  {
    "seq string": "HSDYQYGQRSQ [PKP2_Y168_S169G]",
    "observed result": 0.439
  },
  {
    "seq string": "PIDLFYLMDLS [ITGB2_Y131_YF]",
    "observed result": 0.728
  },
  {
    "seq string": "VDLSKYITTIA [FAS_Y232]",
    "observed result": 0.426
  },
  {
    "seq string": "PARLEYYENEK [IRS1_Y46]",
    "observed result": 0.547
  },
  {
    "seq string": "PLQKTYNFNML [SLC4A1_Y553_V557M_YF]",
    "observed result": 0.582
  },
  {
    "seq string": "RSACTYLAPHL [PLK3_Y615_S618P]",
    "observed result": 1.02
  },
  {
    "seq string": "YLEKYYKFGSR [NNMT_Y25]",
    "observed result": 0.407
  },
  {
    "seq string": "FDCGMYSHLQG [LGR4_Y848_YF]",
    "observed result": 4.74
  },
  {
    "seq string": "DPLLTYRFPPK [LMNA_Y481]",
    "observed result": 0.434
  },
  {
    "seq string": "DEEEEYEFMNR [ERBB3_Y1197_D1194E_YF]",
    "observed result": 0.462
  },
  {
    "seq string": "TTSQLYDAVPI [PDPK1_Y9]",
    "observed result": 13
  },
  {
    "seq string": "KLYRVYCDMNT [FGB_Y269_P265L]",
    "observed result": 0.466
  },
  {
    "seq string": "LGQRIYQYIRS [DYRK1B_Y271_Q275R]",
    "observed result": 7.5
  },
  {
    "seq string": "HAVFVCDICHV [TWNK_Y508_Y508C_YF]",
    "observed result": 0.689
  },
  {
    "seq string": "VSNFNYFYHRE [KCNA1_Y413]",
    "observed result": 0.47
  },
  {
    "seq string": "GGYTWYCDGKK [PROS1_Y266_C265W]",
    "observed result": 0.359
  },
  {
    "seq string": "YCRHNYGVGES [HLA-DRB1_Y112_V115G]",
    "observed result": 0.582
  },
  {
    "seq string": "HNLDYYKQTTN [FGFR3_Y648_K650Q]",
    "observed result": 0.658
  },
  {
    "seq string": "LGGSPYPSVPV [FGFR1_Y701_G703S]",
    "observed result": 0.614
  },
  {
    "seq string": "RHNEIYEIKVD [LGR5_Y387]",
    "observed result": 0.616
  },
  {
    "seq string": "IKGIRYLHHQG [GUCY2D_Y656_R660Q]",
    "observed result": 0.455
  },
  {
    "seq string": "FSCLPYGRLAF [SLC52A2_Y305_YF]",
    "observed result": 0.56
  },
  {
    "seq string": "GSCQEYTGAPY [NAXD_Y85_G81S]",
    "observed result": 0.432
  },
  {
    "seq string": "EMFNPCFGLFE [NEDD4L_Y679_Y679C_YF]",
    "observed result": 0.554
  },
  {
    "seq string": "KMTGRYEMYAR [UPB1_Y362]",
    "observed result": 0.428
  },
  {
    "seq string": "FEGAIYRKDVG [GART_Y417]",
    "observed result": 0.288
  },
  {
    "seq string": "ISGGGYRARPA [FGB_Y71]",
    "observed result": 0.333
  },
  {
    "seq string": "TGNGFYFRVFS [MYBPC3_Y1136_I1131T_YF]",
    "observed result": 0.36
  },
  {
    "seq string": "LNAGAYSKVVQ [PPT1_Y172]",
    "observed result": 0.627
  },
  {
    "seq string": "HEHVGYTTLNR [CHN1_Y148_Y143H]",
    "observed result": 0.44
  },
  {
    "seq string": "RQEEEYKRFSE [SFSWAP_Y133_L136F]",
    "observed result": 0.682
  },
  {
    "seq string": "YHIDHYLGKEM [G6PD_Y202_R198H]",
    "observed result": 0.438
  },
  {
    "seq string": "QQLQGYIPSNF [FRK_Y99_YF]",
    "observed result": 0.878
  },
  {
    "seq string": "TRYDEYLEVTK [MAP1A_Y2217_H2214Y]",
    "observed result": 0.425
  },
  {
    "seq string": "TFINKYQGKLF [HGD_Y249_V245F]",
    "observed result": 0.631
  },
  {
    "seq string": "DMLFQYLKQIE [RPAP3_Y569_YF]",
    "observed result": 0.523
  },
  {
    "seq string": "VSGIPYGQPKQ [NEU1_Y251]",
    "observed result": 0.336
  }
]

---

Measured SH2 binding enrichment of individual entries
- system: Grb2 SH2 (UniProt P62993)
- Sequence (P62993 whole entry, looked up): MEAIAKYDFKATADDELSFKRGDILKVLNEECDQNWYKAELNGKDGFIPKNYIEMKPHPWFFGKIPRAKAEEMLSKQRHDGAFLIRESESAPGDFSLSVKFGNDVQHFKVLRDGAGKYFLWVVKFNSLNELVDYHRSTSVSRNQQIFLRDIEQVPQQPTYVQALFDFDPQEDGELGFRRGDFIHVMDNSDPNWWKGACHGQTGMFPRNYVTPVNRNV
- test description: SH2 binding enrichment of the phosphorylated peptide, bacterial display (enrichment ratio); higher = better substrate or ligand; peptides without Tyr show the background

[
  {
    "seq string": "LIDGYYRLTED [JAK2_Y373_A377E]",
    "system": "Grb2 SH2 (UniProt P62993)",
    "SH2 binding enrichment": 0.886
  },
  {
    "seq string": "MSRNLYSGDYY [DDR2_Y736]",
    "system": "Grb2 SH2 (UniProt P62993)",
    "SH2 binding enrichment": 0.878
  },
  {
    "seq string": "EPFELYCEMGS [CBL_Y371_Q367P_YF]",
    "system": "Grb2 SH2 (UniProt P62993)",
    "SH2 binding enrichment": 0.764
  },
  {
    "seq string": "QDDYSYPSRQM [LDLR_Y847_G844D]",
    "system": "Grb2 SH2 (UniProt P62993)",
    "SH2 binding enrichment": 0.93
  },
  {
    "seq string": "KWHREYNSKFV [RICTOR_Y835_YF]",
    "system": "Grb2 SH2 (UniProt P62993)",
    "SH2 binding enrichment": 1.11
  },
  {
    "seq string": "CLAKMYYSAVE [CP_Y539_D544E]",
    "system": "Grb2 SH2 (UniProt P62993)",
    "SH2 binding enrichment": 0.828
  },
  {
    "seq string": "VIIVLYFSLWK [SLC6A2_Y249_V245I]",
    "system": "Grb2 SH2 (UniProt P62993)",
    "SH2 binding enrichment": 1.95
  },
  {
    "seq string": "LTTEAYEWEPC [ELMOD3_Y61_R66C]",
    "system": "Grb2 SH2 (UniProt P62993)",
    "SH2 binding enrichment": 1.02
  },
  {
    "seq string": "AVRVFYRKCPR [EPHB2_Y194]",
    "system": "Grb2 SH2 (UniProt P62993)",
    "SH2 binding enrichment": 0.611
  },
  {
    "seq string": "ADARMYGVLLW [PLP1_Y207_P211L]",
    "system": "Grb2 SH2 (UniProt P62993)",
    "SH2 binding enrichment": 0.573
  },
  {
    "seq string": "QQLQGYIPSNF [FRK_Y99_YF]",
    "system": "Grb2 SH2 (UniProt P62993)",
    "SH2 binding enrichment": 0.674
  },
  {
    "seq string": "AFLQTYAHEVS [PCDHGA5_Y753_S754A]",
    "system": "Grb2 SH2 (UniProt P62993)",
    "SH2 binding enrichment": 0.755
  },
  {
    "seq string": "YVSSFYHAFSG [ACTN4_Y265]",
    "system": "Grb2 SH2 (UniProt P62993)",
    "SH2 binding enrichment": 1.2
  },
  {
    "seq string": "KKILCYIQGGS [HYDIN_Y4610_N4606K]",
    "system": "Grb2 SH2 (UniProt P62993)",
    "SH2 binding enrichment": 0.802
  },
  {
    "seq string": "AALLNYKAGRD [GRIN2A_Y737_V734L]",
    "system": "Grb2 SH2 (UniProt P62993)",
    "SH2 binding enrichment": 0.861
  },
  {
    "seq string": "HNLDYYKQTTN [FGFR3_Y648_K650Q]",
    "system": "Grb2 SH2 (UniProt P62993)",
    "SH2 binding enrichment": 0.656
  },
  {
    "seq string": "SEKISYVYMKR [SSX7_Y48_L43S]",
    "system": "Grb2 SH2 (UniProt P62993)",
    "SH2 binding enrichment": 1.15
  },
  {
    "seq string": "VITDFYVDMKF [MPP4_Y567_YF]",
    "system": "Grb2 SH2 (UniProt P62993)",
    "SH2 binding enrichment": 0.864
  },
  {
    "seq string": "LFSGDYFRIQG [DDR2_Y740_YF]",
    "system": "Grb2 SH2 (UniProt P62993)",
    "SH2 binding enrichment": 1.03
  },
  {
    "seq string": "FPCSVYMPDEW [INSR_Y1011_V1012M]",
    "system": "Grb2 SH2 (UniProt P62993)",
    "SH2 binding enrichment": 1
  },
  {
    "seq string": "PYSEPYADYGG [APBA1_Y187]",
    "system": "Grb2 SH2 (UniProt P62993)",
    "SH2 binding enrichment": 0.675
  }
]
